# Tested on: E. coli
# Assay protocol: microbe, parasite or virus in culture
# Experimental parameters: Escherichia coli, ATCC700926 / MG1655, read-out: BMD MIC
# Method: Antimicrobial activity of arenicin-3 and its analogs was tested against a panel of bacterial and yeast strains by in vitro broth microdilution (BMD) assay with minimum inhibitory concentration (MIC) determination. Strains were purchased from American Type Culture Collection (ATCC) or obtained from clinical collaborators (full strain profiles provided in Supplementary Data 3). […]
Each record here notes measured MIC.

>  <Compound>
O=C(O)c1cn(C2CC2)c2cc(N3CCNCC3)c(F)cc2c1=O

>  <Target entity>
E. coli

>  <Assay readout>
MIC

>  <Readout value>
≤ 0.25 µg/mL

$$$$
>  <Compound>
C[C@@H](O)[C@H]1C(=O)N2C(C(=O)O)=C(S[C@@H]3CN[C@H](C(=O)N(C)C)C3)[C@H](C)[C@H]12 [Meropenem, meropenem, reference compound]

>  <Target entity>
E. coli

>  <Assay readout>
MIC

>  <Readout value>
≤ 0.03 µg/mL

$$$$
>  <Compound>
CO/N=C(\C(=O)N[C@@H]1C(=O)N2C(C(=O)[O-])=C(C[N+]3(C)CCCC3)CS[C@H]12)c1csc(N)n1 [Cefepime, reference compound]

>  <Target entity>
E. coli

>  <Assay readout>
MIC

>  <Readout value>
≤ 0.5 µg/mL

$$$$

Consider the additional compound presented here.
Data point: CC(C)(O/N=C(\C(=O)N[C@@H]1C(=O)N2C(C(=O)[O-])=C(C[n+]3ccccc3)CS[C@H]12)c1csc(N)n1)C(=O)O [Ceftazidime, ceftazidime, reference compound] ; MIC = ≤ 0.5 µg/mL
